system: human cancer cells; experiment: NCI screen summary over the cancers tested (negative growth of human cancer cells); assay type: cell-based; settings: 10^−4 M conc.; cancers with negative growth / cancers tested
measured_endpoint: Percentage of cancers showing negative growth cancers tested

Task: In one line, give reported Percentage of cancers showing negative growth cancers tested of the entry C[Si](C)(OCCS(=O)(=O)O)C1S(=O)(=O)OCCOS1(=O)=O .
Result: 10^−4 M conc. = 6/21 = 28.6%

Task: Using the record for Cc1ccc(S(=O)(=O)NC(=O)C2S(=O)(=O)OCCOS2(=O)=O)cc1 , state its measured Percentage of cancers showing negative growth cancers tested.
Result: 10^−4 M conc. = 0/3 = 0%

Task: Quote Percentage of cancers showing negative growth cancers tested reported for C[Si](C)(OCCS(=O)(=O)[O-])C(=C1S(=O)(=O)OCCOS1(=O)=O)c1cccc2ccccc12.[Na+] please.
Result: 10^−4 M conc. = 0/1 = 0%

Task: State its Percentage of cancers showing negative growth cancers tested: O=S1(=O)OCCOS(=O)(=O)C1Br [NSC 648305, ethylene bromomethanedisulfonate]
Result: 10^−4 M conc. = 1/3 = 33%

Task: Output measured Percentage of cancers showing negative growth cancers tested for this item: O=S1(=O)OCCOS(=O)(=O)C1c1nc(Cl)c(Cl)nc1Cl
Result: 10^−4 M conc. = 1/4 = 25%

Task: Tell us which Percentage of cancers showing negative growth cancers tested value is on record for O=C(O)c1ccccc1C(=O)NCC1S(=O)(=O)OCCOS1(=O)=O
Result: 10^−4 M conc. = 0/1 = 0%

---

tested on: HOP-18; test: NCI screen, growth of human tumor cells: Non-Small Cell Lung HOP-18; type: cell-based; conditions: HOP-18, 10^−5 molar
// label = 1.0 if % Growth is not less than 60%, otherwise 0.0

Task: Check the entry O=S1(=O)OCCOS(=O)(=O)C1Br [NSC 648305, ethylene bromomethanedisulfonate] : does % Growth equal or exceed 60%?
Result: 1.0

Task: API: above_or_equal(metric=% Growth, cutoff=60%) for item COC=C1S(=O)(=O)OCCOS1(=O)=O
Result: 0.0

Task: Would you say O=S1(=O)OCCOS(=O)(=O)C1(Br)Br [NSC 648304, ethylene dibromomethanedisulfonate] shows % Growth at minimum 60%?
Result: 1.0

Task: Say whether O=S1(=O)OCCOS(=O)(=O)C1Cc1nc2ccccc2[nH]1 shows % Growth of 60% or more.
Result: 0.0

Task: Tell me whether % Growth is at least 60% here: Cc1ccc(S(=O)(=O)NC(=O)C2S(=O)(=O)OCCOS2(=O)=O)cc1
Result: 0.0

---

Assignment: determine reported percent of growth of human tumor cells for the given compounds.
tested on: SF-268; test: NCI screen, growth of human tumor cells: CNS Cancer SF-268; type: cell-based; details: SF-268 (CNS Cancer), 10^−4 molar

Task: Quote SF-268 percent of growth of human tumor cells for entry CC1S(=O)(=O)OCCOS1(=O)=O [NSC 372239] .
Result: 29%

Task: Report value only: percent of growth of human tumor cells, SF-268, CC1=C(CC2(S(=O)(=O)C(F)(F)F)S(=O)(=O)OCCOS2(=O)=O)C(=O)c2ccccc2C1=O [NSC 720682]
Result: 1%

Task: Provide the reported percent of growth of human tumor cells (system: SF-268) for CCOCC1(CC2=C(C)C(=O)c3ccccc3C2=O)S(=O)(=O)OCCOS1(=O)=O [NSC 698124]
Result: 20%

Task: Please look at CC=CC(=O)C1(Cc2ccc3c(c2)C(=O)c2ccccc2C3=O)S(=O)(=O)OCCOS1(=O)=O [NSC 731263] and tell me its recorded percent of growth of human tumor cells on SF-268.
Result: −24%

Task: Name the recorded percent of growth of human tumor cells of CC1=C(CC2(C(=O)C(F)(F)C(F)(F)C(F)(F)F)S(=O)(=O)OCCOS2(=O)=O)C(=O)c2ccccc2C1=O [NSC 720683] , assay system SF-268.
Result: 1%

Task: Give measured percent of growth of human tumor cells for CC=CC(=O)C1(C2=C(Cl)C(=O)c3ccccc3C2=O)S(=O)(=O)OCCOS1(=O)=O [NSC 731264] (SF-268).
Result: 7%

Task: Under SF-268: report percent of growth of human tumor cells of C[Si](C)(OCCS(=O)(=O)O)C1S(=O)(=O)OCCOS1(=O)=O [NSC 674991] .
Result: 11%

Task: Fill in: percent of growth of human tumor cells on SF-268, entry O=C1C(Cl)=C(C2S(=O)(=O)OCCOS2(=O)=O)C(=O)c2ccccc21 [NSC 731260]
Result: 10%
